- Test system: Plasmodium berghei
- test-name: Luciferase/luciferin-expressing antifolate-resistant parasites were used to infect a culture of HepG2 cells that were pre-incubated with compounds. Infected hepatocytes emit light due to the luciferase reaction. Assay results are presented as the percent inhibition of light emission compared to control. […]
- Assay type: functional
- assay-context: sporozoite, HEPG2TOX_HILL_SLOPE 10.4, HEPG2TOX_R_SQUARED 0.414, PBLUC_HILL_SLOPE 1.58, PBLUC_R_SQUARED 0.452, read-out: LUCIFERASE INFECTION ASSAY - IC50
measurement-type: IC50 (µM)
Answer with a number only, understood to be in µM.

// query What IC50 value was documented for this compound, "COc1cc(Nc2nc(C(F)(F)F)nc3ccccc23)cc(OC)c1OC" ?
// result 4.12

---

- System: Plasmodium berghei
- test-name: Luciferase/luciferin-expressing antifolate-resistant parasites were used to infect a culture of HepG2 cells that were pre-incubated with compounds. Infected hepatocytes emit light due to the luciferase reaction. Assay results are presented as the percent inhibition of light emission compared to control. […]
- Assay type: functional
- assay-context: sporozoite, PBLUC_HILL_SLOPE 1.05, PBLUC_R_SQUARED 0.691, read-out: LUCIFERASE INFECTION ASSAY - IC50
measurement-type: IC50 (nM)
Answer with a number only, understood to be in nM.

// query What IC50 value was documented for this compound, Cc1ccsc1C(O)c1nnc(N2CCCCC2)s1 (stereo unspecified) ?
// result 794

---

- Test system: Plasmodium berghei
- test-name: Luciferase/luciferin-expressing antifolate-resistant parasites were used to infect a culture of HepG2 cells that were pre-incubated with compounds. Infected hepatocytes emit light due to the luciferase reaction. Assay results are presented as the percent inhibition of light emission compared to control. […]
- Assay type: functional
- assay-context: sporozoite, HEPG2TOX_HILL_SLOPE 11.1, 2.08, HEPG2TOX_R_SQUARED 0.732, 0.913, PBLUC_HILL_SLOPE 3.29, PBLUC_R_SQUARED 0.645, read-out: LUCIFERASE INFECTION ASSAY - IC50
measurement-type: pIC50
When answering, recall that pIC50 equals minus log10 of the concentration in mol/L, and write that number alone.

// query What pIC50 value was documented for this compound, "C/C(=N\NC(=O)Nc1ccc(Cl)cc1)c1ccc2c(c1)OCCO2" ?
// result 5.30

---

- System: Plasmodium berghei
- test-name: Luciferase/luciferin-expressing antifolate-resistant parasites were used to infect a culture of HepG2 cells that were pre-incubated with compounds. Infected hepatocytes emit light due to the luciferase reaction. Assay results are presented as the percent inhibition of light emission compared to control. […]
- Assay type: functional
- assay-context: sporozoite, PBLUC_HILL_SLOPE 9.7, PBLUC_R_SQUARED 0.271, read-out: LUCIFERASE INFECTION ASSAY - IC50
measurement-type: IC50 (µM)
Answer with a number only, understood to be in µM.

// query What IC50 value was documented for this compound, CC(C)(C)c1ccccc1NC(=O)Nc1nc(C(N)Cc2ccc(C(F)(F)F)cc2)cs1 (stereo unspecified) ?
// result 2.74

---

- System: Plasmodium berghei
- test-name: Luciferase/luciferin-expressing antifolate-resistant parasites were used to infect a culture of HepG2 cells that were pre-incubated with compounds. Infected hepatocytes emit light due to the luciferase reaction. Assay results are presented as the percent inhibition of light emission compared to control. […]
- Type: functional
- assay-context: sporozoite, HEPG2TOX_HILL_SLOPE 1.09, HEPG2TOX_R_SQUARED 0.894, PBLUC_HILL_SLOPE 10.5, PBLUC_R_SQUARED 0.569, read-out: LUCIFERASE INFECTION ASSAY - IC50
measurement-type: IC50

// query What IC50 value was documented for this compound, CC(C)(C)c1ccc(C(O)c2nc(C(=O)NC3CC3)cs2)cc1 (stereo unspecified) ?
// result 1.05 µM

---

- System: Plasmodium berghei
- test-name: Luciferase/luciferin-expressing antifolate-resistant parasites were used to infect a culture of HepG2 cells that were pre-incubated with compounds. Infected hepatocytes emit light due to the luciferase reaction. Assay results are presented as the percent inhibition of light emission compared to control. […]
- Assay type: functional
- assay-context: sporozoite, read-out: LUCIFERASE INFECTION ASSAY - IC90
Documented IC90 across a set of molecules
Answer with a number only, understood to be in µM.

{"columns": ["smiles-entry", "IC90 [µM]"],
 "data": [
  ["COc1ccc(Nc2nccn3c(-c4cccc(NC(C)=O)c4)cnc23)cc1", 0.122],
  ["Cc1onc(-c2ccccc2)c1-c1ccnc(-c2ccc(Cl)cc2)n1", 4.54],
  ["CCCCNC(=O)c1c(NC(=O)c2ccc(F)cc2F)nc2ccc(C)cn12", 3.01],
  ["CCCCNC(=O)c1c(NC(=O)c2ccc(OC)cc2)nc2ccc(C)cn12", 8.55],
  ["O=[N+]([O-])c1ccccc1NC(=S)N/N=C/c1ccc(O)c(O)c1", 8.44]
]}

// query What IC90 value was documented for this molecule, "COc1cc2c(cc1OC)CN(C(=O)CCN1c3ccccc3Sc3ccccc31)CC2" ?
// result 8.48

// query What IC90 value was documented for this molecule, "N#Cc1ccccc1OC(=O)Nc1ccc(SC(F)(F)F)cc1" ?
// result 1.82

// query What IC90 value was documented for this molecule, "COc1cc(-c2nc3ccc(NC(=O)Nc4ccc(OC(F)(F)F)cc4)cn3n2)cc(OC)c1OC" ?
// result 4.73

// query What IC90 value was documented for this molecule, "Cc1nc(C(C)(C)C)nc2sc(C(=O)N(C)CC(=O)Nc3cccc(F)c3)c(C)c12" ?
// result 3.71

---

- System: Plasmodium berghei
- test-name: Luciferase/luciferin-expressing antifolate-resistant parasites were used to infect a culture of HepG2 cells that were pre-incubated with compounds. Infected hepatocytes emit light due to the luciferase reaction. Assay results are presented as the percent inhibition of light emission compared to control. […]
- Format: functional
- assay-context: sporozoite, HEPG2TOX_HILL_SLOPE 1.43, HEPG2TOX_R_SQUARED 0.987, PBLUC_HILL_SLOPE 8.7, PBLUC_R_SQUARED 0.518, read-out: LUCIFERASE INFECTION ASSAY - IC50
measurement-type: pIC50
When answering, recall that pIC50 equals minus log10 of the concentration in mol/L, and write that number alone.

// query What pIC50 value was documented for this compound, "Cc1nnsc1-c1onc(C)c1C(=O)NC(=O)Nc1cc(Cl)cc(Cl)c1" ?
// result 5.63

---

- System: Plasmodium berghei
- test-name: Luciferase/luciferin-expressing antifolate-resistant parasites were used to infect a culture of HepG2 cells that were pre-incubated with compounds. Infected hepatocytes emit light due to the luciferase reaction. Assay results are presented as the percent inhibition of light emission compared to control. […]
- Format: functional
- assay-context: sporozoite, PBLUC_HILL_SLOPE 15.4, PBLUC_R_SQUARED 0.296, read-out: LUCIFERASE INFECTION ASSAY - IC50
measurement-type: pIC50
When answering, recall that pIC50 equals minus log10 of the concentration in mol/L, and write that number alone.

// query What pIC50 value was documented for this compound, CC(C)c1ccc(-c2csc(NC(=O)c3cccc(NC(=O)C4CCCO4)c3)n2)cc1 (stereo unspecified) ?
// result 5.01

---

- Tested on: Plasmodium berghei
- test-name: Luciferase/luciferin-expressing antifolate-resistant parasites were used to infect a culture of HepG2 cells that were pre-incubated with compounds. Infected hepatocytes emit light due to the luciferase reaction. Assay results are presented as the percent inhibition of light emission compared to control. […]
- Assay type: functional
- assay-context: sporozoite, PBLUC_HILL_SLOPE 1.31, PBLUC_R_SQUARED 0.699, read-out: LUCIFERASE INFECTION ASSAY - IC50
measurement-type: IC50 (µM)
Answer with a number only, understood to be in µM.

// query What IC50 value was documented for this molecule, "CN1CCN(c2ccc(Cl)cc2NC(=O)c2cccc(Oc3ccccc3)c2)CC1" ?
// result 0.415

---

- Tested on: Plasmodium berghei
- test-name: Luciferase/luciferin-expressing antifolate-resistant parasites were used to infect a culture of HepG2 cells that were pre-incubated with compounds. Infected hepatocytes emit light due to the luciferase reaction. Assay results are presented as the percent inhibition of light emission compared to control. […]
- Assay type: functional
- assay-context: sporozoite, PBLUC_HILL_SLOPE 0.853, PBLUC_R_SQUARED 0.602, read-out: LUCIFERASE INFECTION ASSAY - IC50
measurement-type: pIC50
When answering, recall that pIC50 equals minus log10 of the concentration in mol/L, and write that number alone.

// query Provide the documented pIC50 with Plasmodium berghei as the system for COc1cccc(/C=N/NC(=O)C2CCCN(C(=S)NNC3CC4C=CC3C4)CC2)c1O (stereo unspecified)
// result 5.83

---

- System: Plasmodium berghei
- test-name: Luciferase/luciferin-expressing antifolate-resistant parasites were used to infect a culture of HepG2 cells that were pre-incubated with compounds. Infected hepatocytes emit light due to the luciferase reaction. Assay results are presented as the percent inhibition of light emission compared to control. […]
- Type: functional
- assay-context: sporozoite, PBLUC_HILL_SLOPE 0.363, 0.720, PBLUC_R_SQUARED 0.388, 0.822, read-out: LUCIFERASE INFECTION ASSAY - IC50
measurement-type: pIC50
When answering, recall that pIC50 equals minus log10 of the concentration in mol/L, and write that number alone.

// query Provide the documented pIC50 with Plasmodium berghei as the system for "O=C(Nc1ccc(N2CCCC2)cn1)c1cc(Cl)ccn1"
// result 6.93
